meta.source: patent US9085603B2

- TARGET OR TEST SYSTEM: human progesterone receptor A (Homo sapiens)
- Construct: expressed in transfected cells; host or cells: SK-N-MC human neuroblastoma cells, stably transfected with pRChPR-A-neo and pMMTV-LUC
- Sequence (P06401 165-933): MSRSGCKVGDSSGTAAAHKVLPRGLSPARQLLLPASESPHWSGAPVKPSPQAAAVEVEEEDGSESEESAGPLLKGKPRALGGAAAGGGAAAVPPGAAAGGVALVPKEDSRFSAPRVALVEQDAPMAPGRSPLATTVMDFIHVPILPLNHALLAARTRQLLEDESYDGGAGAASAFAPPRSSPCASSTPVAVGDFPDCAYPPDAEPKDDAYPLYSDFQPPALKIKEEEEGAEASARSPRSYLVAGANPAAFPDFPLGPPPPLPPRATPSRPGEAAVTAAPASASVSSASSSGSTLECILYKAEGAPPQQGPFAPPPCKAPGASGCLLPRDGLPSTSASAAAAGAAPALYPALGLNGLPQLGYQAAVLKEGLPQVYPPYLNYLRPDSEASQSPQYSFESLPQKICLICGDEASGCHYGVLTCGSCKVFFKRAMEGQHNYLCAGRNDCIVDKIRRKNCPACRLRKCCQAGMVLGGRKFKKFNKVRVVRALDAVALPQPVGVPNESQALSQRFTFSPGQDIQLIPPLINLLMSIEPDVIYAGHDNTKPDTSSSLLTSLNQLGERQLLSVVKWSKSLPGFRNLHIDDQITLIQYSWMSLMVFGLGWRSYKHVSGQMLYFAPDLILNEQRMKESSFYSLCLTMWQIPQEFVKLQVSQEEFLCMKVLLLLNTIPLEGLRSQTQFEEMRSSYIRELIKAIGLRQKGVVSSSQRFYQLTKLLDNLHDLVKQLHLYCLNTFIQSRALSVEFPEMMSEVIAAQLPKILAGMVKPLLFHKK
- PROTOCOL SUMMARY: Progesterone receptor antagonistic effect in stably transfected SK-N-MC cells, MTV-LUC reporter (PR-A)
- Format: cell-based
- STATED CONDITIONS: antagonism of 0.1 nmol/l promegestone, luciferase reporter, 24 hours
pIC50: −log10 of the molar value.
pIC50 of 9 or higher: label 1. Under 9: label 0.

Examples with answers:
COMPOUND | TARGET OR TEST SYSTEM | CLASS LABEL
C[C@]12C[C@H](c3ccc(CN4CCN(Cc5ccccn5)CC4)cc3)C3=C4CCC(=O)C=C4CC[C@H]3[C@@H]1CC[C@@]2(O)C(F)(F)C(F)(F)F [Example 43] | human progesterone receptor A (Homo sapiens) | label 0
C[C@]12C[C@H](c3ccc(CNc4cccc(S(N)(=O)=O)c4)cc3)C3=C4CCC(=O)C=C4CC[C@H]3[C@@H]1CC[C@@]2(O)C(F)(F)C(F)(F)F [Example 40] | human progesterone receptor A (Homo sapiens) | label 1
CN(C)Cc1ccc([C@H]2C[C@@]3(C)C(CC[C@@]3(O)C(F)(F)C(F)(F)F)C3CCC4=CC(=O)CCC4=C32)cc1 (stereo partly drawn) [Example 1] | human progesterone receptor A (Homo sapiens) | label 0
C[C@]12C[C@H](c3ccc(CN4CCCC4)cc3)C3=C4CCC(=O)C=C4CC[C@H]3[C@@H]1CC[C@@]2(O)C(F)(F)C(F)(F)F [Example 46] | human progesterone receptor A (Homo sapiens) | label 0
C[C@]12C[C@H](c3ccc(CN4CCN(S(C)(=O)=O)CC4)cc3)C3=C4CCC(=O)C=C4CC[C@H]3[C@@H]1CC[C@@]2(O)C(F)(F)C(F)(F)F [Example 12] | human progesterone receptor A (Homo sapiens) | label 1

Kindly determine if pIC50 recorded for C[C@]12C[C@H](c3ccc(CN4CCCNCC4)cc3)C3=C4CCC(=O)C=C4CCC3C1CC[C@@]2(O)C(F)(F)C(F)(F)F (stereo partly drawn) [Example 16] is above or exactly 9.
label 0

Would you say C[C@]12C[C@H](c3ccc(CN4CCOCC4)cc3)C3=C4CCC(=O)C=C4CC[C@H]3[C@@H]1CC[C@@]2(O)C(F)(F)C(F)(F)F [Example 7] shows pIC50 at minimum 9?
label 1
